- tested on: DNA dC->dU-editing enzyme APOBEC-3A (Homo sapiens) (UniProt P31941)
- Sequence (P31941 whole entry, looked up): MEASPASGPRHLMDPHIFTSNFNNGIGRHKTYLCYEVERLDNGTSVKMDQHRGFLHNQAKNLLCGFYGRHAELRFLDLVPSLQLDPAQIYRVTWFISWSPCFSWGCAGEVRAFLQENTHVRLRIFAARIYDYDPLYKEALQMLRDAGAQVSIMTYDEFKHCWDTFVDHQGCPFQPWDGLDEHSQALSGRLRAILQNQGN
- experimental details: blockers of A3A cytidine deamination on DNA – biochemical, FAM/TAMRA oligo cleavage fluorescence, selectivity assay for APOBEC3G inhibitor project, primary screen (AID 493011);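 note: plate controls were A3A with DMSO for no effect and wells lacking A3A enzyme for full effect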
- measurement conditions: recombinant A3A, FAM/TAMRA ssDNA deamination fluorescence; at 20 µM
About 1,400 (0.42%) of roughly 330,000 compounds were called active.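 Rule for the calls: active = at least 40% inhibition at 20 µM here, with at most 30% in a related deaminase screen; inactive = the rest.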 This excerpt belongs to a sample that is enriched for actives.
Respond with a class label; see label 1 (active), label 0 (inactive)

COCCN1C(=O)N[C@@H](CCc2ccccc2)[C@H](C(C)=O)[C@H]1C    label 0
CCc1ccc(OCC(O)CN2CCN(CCO)CC2)cc1 (stereo not drawn)    label 0
NC(N)=N/N=C/c1ccc(OCc2ccc(Cl)cc2Cl)cc1    label 0
CC(=O)Nc1ccc(NC(=O)C2CCCN(S(=O)(=O)c3ccc(Cl)cc3)C2)cc1 (stereo not drawn)    label 1
CCCc1nnc(SCC(=O)N2C(C)CCCC2C)n1CC (stereo not drawn)    label 0
CC(C)CNC(=O)C(=O)NCc1ccccc1    label 0
CCN1C(=S)N[C@@H](CCc2ccccc2)[C@H](C(=O)OC)[C@H]1C    label 0
CCN1C(=O)N[C@@H](CCc2ccccc2)C(C(=O)OC)=C1C    label 0

Request: Hi, sorry to bother you, what did the test record for CC(/C=C/c1ccccc1)=N\NC(=O)C1CC1(C)c1ccccc1 (stereo not drawn) ?
Response: label 1

###

- tested on: DNA dC->dU-editing enzyme APOBEC-3A (Homo sapiens)
- experimental details: blockers of A3A cytidine deamination on DNA – biochemical, FAM/TAMRA oligo cleavage fluorescence, selectivity assay for APOBEC3G inhibitor project, primary screen (AID 493011);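 note: plate controls were A3A with DMSO for no effect and wells lacking A3A enzyme for full effect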
- measurement conditions: recombinant A3A, FAM/TAMRA ssDNA deamination fluorescence; at 20 µM; stronger effect = higher value
Screen size: about 330,000 compounds; about 1,400 (0.42%) were called active. The sample as a whole holds a higher share of actives than the screen did.
measurement name: inhibition (%)
# output: bare number, implied unit %

// worked examples, inhibition included
CC(Oc1ccc(F)cc1)C(=O)N1CCN(c2ncccn2)CC1 (centres undefined)    3.53
CC(Oc1ccc(F)cc1)C(=O)Nc1cc(S(=O)(=O)N2CCOCC2)ccc1N1CCN(C)CC1 (centres undefined)    63.9
CCS(=O)(=O)C1=NSC2=NC(=O)/C(=C\c3cc(C)n(-c4cccc(OC)c4)c3C)C(=N)N21    -3.79
O=C(NCCCn1ccnc1)c1cc(Br)c(Br)s1    -1.2
CCNC(=O)COC(=O)CCNC(=O)c1cccc(C)c1    82.3
Cc1cccc(N2CCN(C(=O)COCc3cc(-c4ccc5c(c4)OCO5)on3)CC2)c1C    -0.313
CC(=O)c1cccc(NC(=O)c2cc(C)nn2-c2ccccc2)c1    -0.424
Cc1cc(=O)[nH]c(SCc2cccc(F)c2)n1    -0.614
N#Cc1ccccc1CN1C(=O)S/C(=C/c2cccn2-c2cccc(C(=O)O)c2)C1=O    74.4
CCN(CC)S(=O)(=O)c1ccc(N2CCOCC2)c(NC(=O)C(C)Oc2ccc(F)cc2)c1 (centres undefined)    -2.06

--- query ---
So, CCCCn1c(N)c(N(CC(C)C)C(=O)C2CSC3(C)CCC(=O)N23)c(=O)[nH]c1=O (centres undefined) ? Its inhibition was 7.64
